# Test system: NB(TU)1-10 (Neuroblastoma)
# assay_info: combination Emax (second highest fraction inhibited in the dose matrix, 72 h); higher = more inhibition; extreme values may be limits of the assay
Use 0.9 as the dividing line for combination Emax, with the line itself on the T side and lower values as F.

Is the recorded value of combination Emax equal to or greater than 0.9 for this compound? Cc1cc2ncnn2cc1Nc1ncc2c(n1)n(C1CCOCC1)c(=O)n2C [AZD7648] + C[C@@H]1COCCN1C2=NC(=NC(=C2)C3(CC3)[S@](=N)(=O)C)C4=C5C=CNC5=NC=C4 [AZD6738] (first compound max 10 µM, 7x7, partner max 10 µM)
F

Lookup CCc1c2c(nc3ccc(O)cc13)-c1cc3c(c(=O)n1C2)COC(=O)[C@]3(O)CC [SN-38] + CN(C)CCCOc1ccc(-c2ccc3ncc4c(c3c2)n(C2CCOCC2)c(=O)n4C)cn1 [AZD0156] (first compound max 0.3 µM, 7x7, partner max 1 µM)
F

Another: CN(C)CCCOc1ccc(-c2ccc3ncc4c(c3c2)n(C2CCOCC2)c(=O)n4C)cn1 [AZD0156] + O=C(c1cc(Cc2n[nH]c(=O)c3ccccc23)ccc1F)N1CCN(C(=O)C2CC2)CC1 [Olaparib] (first compound max 3 µM, partner max 3 µM)
F

Next record, please: COc1cc2c(cc1OCCCCCOc1cc3c(cc1OC)C(=O)N1C=C(C)C[C@H]1C=N3)N=C[C@@H]1CC(C)=CN1C2=O [SG3199] + O=C(c1cc(Cc2n[nH]c(=O)c3ccccc23)ccc1F)N1CCN(C(=O)C2CC2)CC1 [Olaparib] (first compound max 0.001 µM, 7x7, partner max 10 µM)
F

Another compound to check: COc1cccc(OCCCN)c1-c1cc(Nc2cnc(C#N)cn2)n[nH]1 [Prexasertib] + CN(C)CCCOc1ccc(-c2ccc3ncc4c(c3c2)n(C2CCOCC2)c(=O)n4C)cn1 [AZD0156] (first compound max 1 µM, 7x7, partner max 1 µM)
T
